Each recorded value in this set is attributed to BigSolDB 2.1.

COND: in DMSO, 298.2 K
REPORTED ENDPOINT: solubility (mole fraction)

Which solubility (mole fraction) value is on record for COc1c(C)c2c(c(O)c1C/C=C(\C)CCC(=O)OCCN1CCOCC1)C(=O)OC2 ?
0.023

====

COND: in isopropanol, 303.2 K
REPORTED ENDPOINT: solubility (mole fraction)
Answer as a number with no unit attached.

Which solubility (mole fraction) value is on record for COc1c(C)c2c(c(O)c1C/C=C(\C)CCC(=O)OCCN1CCOCC1)C(=O)OC2 ?
0.00934

====

COND: in PEG-400, 313.2 K
REPORTED ENDPOINT: solubility (mole fraction)
Answer as a number with no unit attached.

Which solubility (mole fraction) value is on record for COc1c(C)c2c(c(O)c1C/C=C(\C)CCC(=O)OCCN1CCOCC1)C(=O)OC2 ?
0.0399
